Data provenance: paper PMC5540273

- Test system: ABL1-nonphosphorylated;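 note: KINOMEscan kinase panel screen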
- assay.conditions: concentration: 1 μM,replicates: in singlicate; n = 1
Please use true (1) for %Inh under 30% and false (0) for everything else, ties included.

>>> df
                                    compound  answer_label
 0  COc1cc2c(Nc3ccc(NC(=O)c4ccccc4)cc3)ncnc2cc1OCCCN1CCOCC1 [GSK301329]      true (1)
 1  OCCn1cc(-c2cnc3nnn(Cc4ccc5ncccc5c4)c3n2)cn1     false (0)
 2  Cc1ccc(CC(=O)N2CCc3cc(-c4cn(C)c5ncnc(N)c45)ccc32)cc1 [GSK2634758]     false (0)
 3  CN(c1ccccc1CNc1nc(Nc2ccc3c(c2)CC(=O)N3)ncc1C(F)(F)F)S(C)(=O)=O      true (1)
 4  Cc1ccc(C(=O)Nc2ccc(Oc3ccc4nc(NC(=O)C5CC5)cn4c3)c(F)c2)c(=O)n1-c1ccccc1     false (0)
 5  Cn1ccc2ncnc(Oc3ccc(NC(=O)Nc4ccnc(C(F)(F)F)c4)c(Cl)c3)c21     false (0)
 6             O=C1NCCc2[nH]c(-c3ccncc3)cc21     false (0)
 7  CCN1CCN(CCCC(=O)Nc2n[nH]c3nc(-c4ccc(O)cc4)c(Br)cc23)CC1 [SB-731579]     false (0)
 8  COc1cccc(C2=C(Nc3cccc(Cl)c3)C(=O)NC2=O)c1 [SB-341556]      true (1)
 9  C[C@@H](Oc1cc(-n2cnc3cc(-c4cnn(C)c4)ccc32)sc1C(N)=O)c1ccccc1Cl [GSK580432]     false (0)
10  Cc1ccc(Nc2ccnc(Nc3ccc4c(c3)CS(=O)(=O)C4)n2)cc1O.Cl [GW579362]     false (0)
11  CCNCC(Cc1ccccc1)NC(=O)c1cc(Br)c(-c2ccnc3[nH]ccc23)s1.Cl.Cl (centres unmarked) [GSK1383280]      true (1)
12  Cn1ccc2ncnc(Oc3ccc(NC(=O)Nc4cncc(C(F)(F)F)c4)c(Cl)c3)c21     false (0)
13  CN(c1ccc2c(c1)nc(NCc1ccc(F)cc1)n2C)c1ccnc(Nc2ccc(CS(C)(=O)=O)cc2)n1.Cl [GW813244]     false (0)
14  CNC(=O)c1ccccc1Nc1nc(Nc2cccc(CS(C)(=O)=O)c2)ncc1C.O=CO [GSK1520489]     false (0)
15      Cn1cc(-c2cccc3c(N)c(C(N)=O)nnc23)cn1      true (1)
16  COC(=O)c1cccc(NC(=O)NC2CCN(c3ccnc(NCc4ccc(F)cc4)n3)CC2)c1 [GSK1379860]      true (1)
